tested on: COLI; test: Inhibiting minimum concentration (I.M.C.), activity relative to trimethoprime, MULLER HINTON COLI MEDIUM 4; assay type: cell-based; conditions: ratio to trimethoprime, corrected by molecular weight
READOUT NAME: % activity to the base corrected by molecular weight (%)

* COc1cc(Cc2cnc(NC(c3ccccc3O)S(=O)(=O)O)nc2N)cc(OC)c1OC (stereo not drawn) [Example 25f] | 120
* COc1cc(Cc2cnc(NC(c3cc(OC)c(OC)c(OC)c3)S(=O)(=O)O)nc2N)cc(OC)c1OC (stereo not drawn) [Example 17] | 48
* COc1cc(Cc2cnc(NC(c3ccccc3O)S(=O)(=O)O)nc2N)cc(OC)c1OC (stereo not drawn) [Example 25c] | 116
